Origin of the recorded values: patent US20040161798A1

biological target: T1, ubiquitin (Homo sapiens (Human), UniProt P0CG47 1-76, The screen used fluorescently labelled ubiquitin. The ITC and pull-down assays used unlabelled (native) ubiquitin.); assay: isothermal titration calorimetry in solution
T1 construct: Unlabeled in ITC and in the pull-down assays; also called native ubiquitin
No end group written: not given here.
Entries and their measured Kd follow.
outcomeMeasure: Kd (µM)

• H-RWDRYYF (Hit of a seven residue peptide library; also called ubiquitin lead peptide; lead peptide) [NH2-RWDRYYF] = 33
• H-WGLRALESRWDRYYF (Hit of the library NH2-X7-S-RWDRYYF) [NH2-WGLRALESRWDRYYF] = 12
